The entries below are paired with their reported IC50.
Molecular target: human JAK1 (a.a. 837-1142) (Homo sapiens)
Construct: The catalytic domains of human JAK1 (a.a. 837-1142); His tag (N); made in house; host or cells: insect cells (baculovirus)
Sequence (P23458 849-1154): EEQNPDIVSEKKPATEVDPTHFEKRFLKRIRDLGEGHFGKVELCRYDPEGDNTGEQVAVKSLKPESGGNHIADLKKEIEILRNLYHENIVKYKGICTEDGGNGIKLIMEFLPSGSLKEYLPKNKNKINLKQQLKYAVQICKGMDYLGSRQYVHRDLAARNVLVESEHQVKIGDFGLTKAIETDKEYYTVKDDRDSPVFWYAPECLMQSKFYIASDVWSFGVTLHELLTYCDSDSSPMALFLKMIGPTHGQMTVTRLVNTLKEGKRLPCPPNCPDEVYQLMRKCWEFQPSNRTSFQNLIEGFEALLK
Experiment: In vitro JAK kinase assay (HTRF, phosphorylation of biotinylated peptide), JAK1
Assay type: biochemical
Details: 1 mM ATP; Examples 92-162; read-out: JAK1 IC50 (nM) @ 1 mM ATP
Description: Compounds herein were tested for inhibitory activity of JAK targets according to the following in vitro assay described in Park et al., Analytical Biochemistry 1999, 269, 94-104. […] The phosphorylated peptide was detected by homogenous time resolved fluorescence (HTRF). […] Binding to the Europium labeled antibody took place for 40 minutes and HTRF signal was measured on a Fusion plate reader (Perkin Elmer, Boston, Mass.). […]
Where a name gives a salt, the structure may show the parent alone.

Sample answers from the record:
| compound | targetOrTestSystem | IC50 |
| --- | --- | --- |
| CCC(CN1CCN(S(=O)(=O)c2cccc(C)n2)CC1)n1cc(-c2ncnc3[nH]ccc23)cn1 (stereo not drawn) | human JAK1 (a.a. 837-1142) (Homo sapiens) | < 20 nM |
| N#CCC(CN1CCN(C(=O)c2ccc(C#N)cc2F)C(CO)C1)n1cc(-c2ncnc3[nH]ccc23)cn1 (mixture of isomers) | human JAK1 (a.a. 837-1142) (Homo sapiens) | 20 to 50 nM |
| CCC(CN1CCN(S(=O)(=O)c2cn(C)c(C)n2)CC1)n1cc(-c2ncnc3[nH]ccc23)cn1 (stereo not drawn) | human JAK1 (a.a. 837-1142) (Homo sapiens) | 20 to 50 nM |
| CCC(CN1CCN(S(=O)(=O)c2cn(C)nc2C(F)(F)F)CC1)n1cc(-c2ncnc3[nH]ccc23)cn1 (stereo not drawn) | human JAK1 (a.a. 837-1142) (Homo sapiens) | 20 to 50 nM |
| N#CCC(CN1CCCN(C(=O)c2ccc(Cl)cc2F)CC1)n1cc(-c2ncnc3[nH]ccc23)cn1 (stereo not drawn) | human JAK1 (a.a. 837-1142) (Homo sapiens) | < 20 nM |
| CCC(CN1CCN(S(=O)(=O)c2cccc(C#N)c2)CC1)n1cc(-c2ncnc3[nH]ccc23)cn1 (stereo not drawn) | human JAK1 (a.a. 837-1142) (Homo sapiens) | 20 to 50 nM |
| N#CCC(CN1CCCN(S(=O)(=O)c2ccccc2Oc2ccccc2)CC1)n1cc(-c2ncnc3[nH]ccc23)cn1 (stereo not drawn) | human JAK1 (a.a. 837-1142) (Homo sapiens) | 20 to 50 nM |
| N#CCC(CN1CCN(C(=O)c2ccc(C#N)cc2F)CC1CF)n1cc(-c2ncnc3[nH]ccc23)cn1 (single isomer, unassigned) | human JAK1 (a.a. 837-1142) (Homo sapiens) | < 20 nM |
| Cc1c(Nc2c(F)cccc2F)ncnc1N1CCC(C(CC#N)n2cc(-c3ncnc4[nH]ccc34)cn2)CC1 (stereo not drawn) | human JAK1 (a.a. 837-1142) (Homo sapiens) | < 20 nM |
| N#CCC(CN1CCN(C(=O)c2ccc(C#N)cc2F)CC1CO)n1cc(-c2ncnc3[nH]ccc23)cn1 (single isomer, unassigned) [156—peak 1, trifluoroacetate Salt] | human JAK1 (a.a. 837-1142) (Homo sapiens) | < 20 nM |

Prompt line: What measured IC50 goes with N#CCC(CN1CCN(C(=O)c2ccc(C#N)cc2F)CC1C(F)F)n1cc(-c2ncnc3[nH]ccc23)cn1 (single isomer, unassigned) [Example 159—peak 2] ?
Response line: 50 to 100 nM

Prompt line: What measured IC50 goes with CCC(CN1CCN(C(=O)c2ccc(F)cc2OC)CC1)n1cc(-c2ncnc3[nH]ccc23)cn1 (stereo not drawn) ?
Response line: 20 to 50 nM

Prompt line: What measured IC50 goes with CC(CN1CCN(S(=O)(=O)c2cccc(F)c2)CC1)n1cc(-c2ncnc3[nH]ccc23)cn1 (stereo not drawn) [Example 96, bis(trifluoroacetate)] ?
Response line: 20 to 50 nM

Prompt line: What measured IC50 goes with CCC(CN1CCN(S(=O)(=O)c2ccc(C#N)cc2)CC1)n1cc(-c2ncnc3[nH]ccc23)cn1 (stereo not drawn) ?
Response line: 20 to 50 nM

Prompt line: What measured IC50 goes with CC(CN1CCN(S(=O)(=O)c2ccc(Cl)s2)CC1)n1cc(-c2ncnc3[nH]ccc23)cn1 (stereo not drawn) ?
Response line: 20 to 50 nM
